molecular target: T1, human DLL4 extracellular domain (human, UniProt Q9NR61 27-529); assay: competition ELISA vs Notch-1
T1 construct: purified recombinant ECD; biotin-labelled or 6xHis-tagged depending on the assay; also called huDLL4 ECD; hu DLL4 ECD
T1 sequence (Q9NR61 27-529 limits assumed): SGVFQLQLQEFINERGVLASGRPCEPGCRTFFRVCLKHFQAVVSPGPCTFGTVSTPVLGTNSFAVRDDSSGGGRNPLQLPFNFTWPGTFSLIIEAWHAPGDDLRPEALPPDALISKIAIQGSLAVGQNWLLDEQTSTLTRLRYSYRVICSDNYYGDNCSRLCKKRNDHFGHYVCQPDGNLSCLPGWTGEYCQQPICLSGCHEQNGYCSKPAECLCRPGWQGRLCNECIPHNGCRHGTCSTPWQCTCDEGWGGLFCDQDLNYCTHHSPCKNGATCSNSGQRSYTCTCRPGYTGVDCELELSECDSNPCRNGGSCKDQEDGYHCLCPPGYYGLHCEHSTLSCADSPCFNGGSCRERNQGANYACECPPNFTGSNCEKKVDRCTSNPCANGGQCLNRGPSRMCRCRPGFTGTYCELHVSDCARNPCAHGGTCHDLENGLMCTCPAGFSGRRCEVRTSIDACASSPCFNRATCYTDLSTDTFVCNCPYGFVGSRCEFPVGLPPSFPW
Provide the reported IC50 of each item.
Numeric answer only, unit pM assumed.

Entry h1A11.14 (antibody, V domains shown, humanized IgG; also called VH.2a/VL.1a 1A11) VH: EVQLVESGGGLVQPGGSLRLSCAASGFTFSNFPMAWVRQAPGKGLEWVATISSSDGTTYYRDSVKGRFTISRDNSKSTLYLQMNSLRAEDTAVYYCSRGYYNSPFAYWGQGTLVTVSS VL: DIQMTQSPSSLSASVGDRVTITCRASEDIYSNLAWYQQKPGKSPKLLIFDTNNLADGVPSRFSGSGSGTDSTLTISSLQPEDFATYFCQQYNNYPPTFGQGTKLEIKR ; IC50 = 250

Entry h1A11.8 (antibody, V domains shown, humanized IgG; also called VH.1a/VL.2a 1A11) VH: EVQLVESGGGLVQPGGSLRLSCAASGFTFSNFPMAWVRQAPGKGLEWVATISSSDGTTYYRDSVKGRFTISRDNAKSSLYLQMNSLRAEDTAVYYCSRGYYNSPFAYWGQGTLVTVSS VL: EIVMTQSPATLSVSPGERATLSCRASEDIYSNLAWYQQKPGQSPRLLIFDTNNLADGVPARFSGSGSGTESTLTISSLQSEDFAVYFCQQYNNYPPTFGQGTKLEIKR ; IC50 = 350
